Molecular target: BRAF V600E (Homo sapiens, UniProt P15056+Q96SW2, V600E)
Construct: knock-in of the HiBiT tag to the endogenous BRAF V600E locus; host or cells: A375.10 (A375 clonal line, CRISPR HiBiT knock-in at the endogenous BRAF V600E locus)
Sequence (P15056 whole entry V600E): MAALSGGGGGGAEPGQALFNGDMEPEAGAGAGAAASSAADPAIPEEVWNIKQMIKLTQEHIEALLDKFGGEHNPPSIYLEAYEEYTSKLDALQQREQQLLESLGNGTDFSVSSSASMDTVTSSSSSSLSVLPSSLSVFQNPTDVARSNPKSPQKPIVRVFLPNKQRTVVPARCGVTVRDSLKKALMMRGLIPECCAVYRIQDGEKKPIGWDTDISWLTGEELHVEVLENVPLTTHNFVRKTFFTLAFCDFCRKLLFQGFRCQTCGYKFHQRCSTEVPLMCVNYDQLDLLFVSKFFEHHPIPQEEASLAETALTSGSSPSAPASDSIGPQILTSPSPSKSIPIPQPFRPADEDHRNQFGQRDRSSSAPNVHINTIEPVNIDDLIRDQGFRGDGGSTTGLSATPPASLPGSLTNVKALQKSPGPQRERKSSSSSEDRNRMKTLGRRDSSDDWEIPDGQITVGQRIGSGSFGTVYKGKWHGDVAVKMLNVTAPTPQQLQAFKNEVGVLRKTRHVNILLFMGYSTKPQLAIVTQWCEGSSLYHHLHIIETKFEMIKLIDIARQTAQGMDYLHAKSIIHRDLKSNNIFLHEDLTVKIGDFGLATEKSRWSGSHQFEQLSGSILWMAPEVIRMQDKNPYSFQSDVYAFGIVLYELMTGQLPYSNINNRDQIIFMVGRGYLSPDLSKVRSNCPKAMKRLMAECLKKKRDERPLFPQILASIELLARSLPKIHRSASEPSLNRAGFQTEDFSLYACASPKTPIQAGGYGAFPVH
Sequence (Q96SW2 whole entry): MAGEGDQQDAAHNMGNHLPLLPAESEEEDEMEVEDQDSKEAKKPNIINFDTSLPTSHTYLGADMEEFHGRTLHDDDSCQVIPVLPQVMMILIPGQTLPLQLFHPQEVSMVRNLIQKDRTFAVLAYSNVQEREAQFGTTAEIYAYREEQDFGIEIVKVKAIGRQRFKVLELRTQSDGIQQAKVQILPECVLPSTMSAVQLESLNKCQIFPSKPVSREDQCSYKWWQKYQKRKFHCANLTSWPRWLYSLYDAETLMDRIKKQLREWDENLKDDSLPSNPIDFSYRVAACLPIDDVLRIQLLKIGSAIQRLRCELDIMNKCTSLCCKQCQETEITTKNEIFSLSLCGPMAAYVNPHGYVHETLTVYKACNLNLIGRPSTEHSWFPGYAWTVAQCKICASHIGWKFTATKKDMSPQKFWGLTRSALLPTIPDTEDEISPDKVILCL
Sequence (Q16531 whole entry partner): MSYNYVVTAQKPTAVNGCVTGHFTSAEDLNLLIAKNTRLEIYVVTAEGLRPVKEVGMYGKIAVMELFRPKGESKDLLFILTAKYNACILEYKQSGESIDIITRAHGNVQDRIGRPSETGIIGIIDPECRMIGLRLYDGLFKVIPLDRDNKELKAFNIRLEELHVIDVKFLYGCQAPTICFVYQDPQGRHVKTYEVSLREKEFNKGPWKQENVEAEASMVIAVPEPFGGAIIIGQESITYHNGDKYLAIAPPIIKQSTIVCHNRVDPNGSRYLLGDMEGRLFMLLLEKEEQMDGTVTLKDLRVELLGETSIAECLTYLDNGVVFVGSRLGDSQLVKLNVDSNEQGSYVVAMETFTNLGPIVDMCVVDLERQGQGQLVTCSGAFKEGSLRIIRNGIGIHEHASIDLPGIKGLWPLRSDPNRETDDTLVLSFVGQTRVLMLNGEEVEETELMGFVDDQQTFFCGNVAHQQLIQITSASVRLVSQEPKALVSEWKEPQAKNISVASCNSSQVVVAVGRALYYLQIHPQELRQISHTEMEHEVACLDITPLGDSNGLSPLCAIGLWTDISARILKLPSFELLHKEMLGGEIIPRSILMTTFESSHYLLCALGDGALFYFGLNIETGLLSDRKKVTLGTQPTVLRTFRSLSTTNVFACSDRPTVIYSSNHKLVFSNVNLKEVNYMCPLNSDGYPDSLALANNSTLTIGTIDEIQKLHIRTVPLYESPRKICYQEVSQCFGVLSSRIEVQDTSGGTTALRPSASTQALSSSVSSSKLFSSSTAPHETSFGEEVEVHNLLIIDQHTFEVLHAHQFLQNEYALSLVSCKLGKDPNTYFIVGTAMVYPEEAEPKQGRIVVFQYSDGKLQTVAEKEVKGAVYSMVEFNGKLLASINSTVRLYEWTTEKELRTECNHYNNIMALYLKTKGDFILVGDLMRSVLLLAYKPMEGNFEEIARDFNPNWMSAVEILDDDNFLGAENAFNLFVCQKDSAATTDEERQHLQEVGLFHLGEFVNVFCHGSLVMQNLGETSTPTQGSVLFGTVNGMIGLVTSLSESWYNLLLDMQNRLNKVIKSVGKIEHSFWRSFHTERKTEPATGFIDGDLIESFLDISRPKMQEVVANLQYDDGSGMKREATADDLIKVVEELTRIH
Assay: BRAF V600E HiBiT Degradation Assay
Format: cell-based
Conditions: A375.10 cells, BRAF V600E, 2 hours; residual protein remaining; read-out: HiBiT-Degradation A375.10 BRAF 2 hours Emax
Entries and their Emax values follow.

{"compound": "CCN(C)S(=O)(=O)Nc1ccc(F)c(Oc2ccc3ncn([C@H]4COC5(CCC(N6CC7(CN(c8cc9c(cc8F)c(N8CCC(=O)NC8=O)nn9C)C7)C6)CC5)C4)c(=O)c3c2)c1C#N (some centres unmarked) [Compound 27]", "Emax": "< 50%"}
{"compound": "CCN(C)S(=O)(=O)Nc1ccc(F)c(Oc2ccc3ncn(C4CC5(CCN(C6CC7(C6)CN(c6cc8c(cc6F)c(N6CCC(=O)NC6=O)nn8C)C7)CC5)C4)c(=O)c3c2)c1F (centres unmarked) [Compound 164]", "Emax": "50 to 90%"}
{"compound": "CCN(C)S(=O)(=O)Nc1ccc(F)c(Oc2ccc3ncn(C4CC5(CCN(C6CC7(CCN(c8cc9c(cc8F)c(N8CCC(=O)NC8=O)nn9C)CC7)C6)C5)C4)c(=O)c3c2)c1C#N (centres unmarked) [Compound 266]", "Emax": "50 to 90%"}
{"compound": "CN(CCO)S(=O)(=O)Nc1ccc(F)c(Oc2ccc3ncn([C@H]4COC5(CCN(C6CCC(c7cc8c(cc7F)c(N7CCC(=O)NC7=O)nn8C)CC6)CC5)C4)c(=O)c3c2)c1C#N (single isomer, unassigned) [Compound 73]", "Emax": "< 50%"}
{"compound": "CC(C)S(=O)(=O)Nc1ccc(F)c(Oc2ccc3ncn(C4CC5(CCN(C6CCC(c7cc8c(cc7F)c(N7CCC(=O)NC7=O)nn8C)CC6)CC5)C4)c(=O)c3c2)c1C#N (single isomer, unassigned) [Compound 95]", "Emax": "< 50%"}
